Hey, just so you know, these numbers are from patent US8536332B2.

# cutoff 200 °C applies to melting point; >= gives yes, < gives no

chemicalSmiles | cat
CCNC(=O)Nc1cnc2ccc(-c3ccc(OC(F)(F)F)c(F)c3)nc2n1 | yes
CCNC(=O)Nc1ccc2ncc(Nc3cccc(C)c3C)nc2n1 | yes
CCNC(=O)Nc1ccc2ncc(Nc3ccccc3OC)nc2n1 | yes

Query :: Kindly determine if melting point recorded for CCNC(=O)Nc1cnc2ccc(Nc3ccc(C)c(OC)c3)nc2n1 is above or exactly 200 °C.
Result :: yes

Query :: Kindly determine if melting point recorded for CCNC(=S)Nc1cnc2ccc(Nc3ccc(O)c(OC)c3)nc2n1 is above or exactly 200 °C.
Result :: no

* * *

// values below are reported melting point

// solved cases for melting point follow
molecule | melting point
CCNC(=O)Nc1ccc2ncc(-c3cccc(C)c3)nc2n1 [Compound 100] | 232 to 234 °C
CNC(=S)Nc1cnc2ccc(-c3ccc(O)c(OC)c3)nc2n1 [Compound 526] | 279 to 280 °C
Cc1cc(-c2ccc3ncc(NC(=O)Nc4c(C)noc4C)nc3n2)cc(C)c1O [Compound 590] | 242 to 244 °C

Query :: Fill blank: measured melting point of the molecule CCNC(=S)Nc1cnc2ccc(Nc3ccc(O)c(Cl)c3)nc2n1 [Compound 208] is ____.
Result :: 203 °C

Query :: Fill blank: measured melting point of the molecule COc1ccc(-c2ccc3ncc(NC(=O)Nc4ccc(C)cc4)nc3n2)cc1OC [Compound 578] is ____.
Result :: 263 to 266 °C

Query :: Fill blank: measured melting point of the molecule O=C(Nc1cnc2ccc(-c3cc(Cl)c(O)c(Cl)c3)nc2n1)NC1CCCCC1 [Compound 558] is ____.
Result :: 272 to 275 °C

Query :: Fill blank: measured melting point of the molecule Cc1cc(-c2ccc3ncc(NC(=O)Nc4ccccc4)nc3n2)cc(C)c1O [Compound 595] is ____.
Result :: 271 to 273 °C

Query :: Fill blank: measured melting point of the molecule COc1ccc(-c2ccc3ncc(NC(=O)Nc4c(C)noc4C)nc3n2)cc1OC [Compound 573] is ____.
Result :: 265 to 267 °C

Query :: Fill blank: measured melting point of the molecule COc1cc(-c2ccc3ncc(NC(=O)NCCCCc4ccccc4)nc3n2)ccc1O [Compound 630] is ____.
Result :: 208 to 210 °C

Query :: Fill blank: measured melting point of the molecule CCNC(=O)Nc1cnc2ccc(N3CCCN(C)CC3)nc2n1 [Compound 233] is ____.
Result :: 199 to 201 °C
